The origin of these recorded values is ChEMBL document CHEMBL4765481.

- TARGET: CMP-N-acetylneuraminate-beta-1,4-galactoside alpha-2,3-sialyltransferase (Rattus norvegicus)
- Sequence (Q02734 whole entry): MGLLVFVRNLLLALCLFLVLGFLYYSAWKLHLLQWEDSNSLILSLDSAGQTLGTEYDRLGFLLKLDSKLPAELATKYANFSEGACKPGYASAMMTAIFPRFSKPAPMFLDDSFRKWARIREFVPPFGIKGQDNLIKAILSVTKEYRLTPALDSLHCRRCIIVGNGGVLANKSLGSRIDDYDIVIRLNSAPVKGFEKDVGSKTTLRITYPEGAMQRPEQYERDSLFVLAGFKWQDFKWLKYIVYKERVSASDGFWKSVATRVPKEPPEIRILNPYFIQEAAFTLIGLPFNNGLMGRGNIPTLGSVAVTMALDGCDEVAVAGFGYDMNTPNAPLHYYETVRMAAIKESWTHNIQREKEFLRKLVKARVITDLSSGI
ASSAY_ENDPOINT: pIC50
Answers are plain numbers, as −log10 of the molar value.

Answered examples (3):
[
  {
    "STRUCTURE_STRING": "C[C@H](CCC(=O)OCCOCCN=[N+]=[N-])[C@H]1CC[C@H]2[C@@H]3CC[C@@H]4C[C@H](OC(=O)[C@H](CC(=O)O)Nc5ccc([N+](=O)[O-])c6nonc56)CC[C@]4(C)[C@H]3CC[C@]12C",
    "EXPERIMENTAL_RESULT": 6.11
  },
  {
    "STRUCTURE_STRING": "C[C@H](CCC(=O)OCCN=[N+]=[N-])[C@H]1CC[C@H]2[C@@H]3CC[C@@H]4C[C@H](OC(=O)[C@H](CC(=O)O)Nc5ccc([N+](=O)[O-])c6nonc56)CC[C@]4(C)[C@H]3CC[C@]12C",
    "EXPERIMENTAL_RESULT": 6.10
  },
  {
    "STRUCTURE_STRING": "C[C@H](CCC(=O)OCCOCCOCCOCCOCCN=[N+]=[N-])[C@H]1CC[C@H]2[C@@H]3CC[C@@H]4C[C@H](OC(=O)[C@H](CC(=O)O)Nc5ccc([N+](=O)[O-])c6nonc56)CC[C@]4(C)[C@H]3CC[C@]12C",
    "EXPERIMENTAL_RESULT": 6.00
  }
]

Turning to the following compound.
Returns the measured pIC50 for the input compound. Input: C[C@H](CCC(=O)OCCOCCOCCN=[N+]=[N-])[C@H]1CC[C@H]2[C@@H]3CC[C@@H]4C[C@H](OC(=O)[C@H](CC(=O)O)Nc5ccc([N+](=O)[O-])c6nonc56)CC[C@]4(C)[C@H]3CC[C@]12C
5.76

---

- TARGET: Beta-galactoside alpha-2,6-sialyltransferase 1 (Homo sapiens)
- Sequence (P15907 whole entry): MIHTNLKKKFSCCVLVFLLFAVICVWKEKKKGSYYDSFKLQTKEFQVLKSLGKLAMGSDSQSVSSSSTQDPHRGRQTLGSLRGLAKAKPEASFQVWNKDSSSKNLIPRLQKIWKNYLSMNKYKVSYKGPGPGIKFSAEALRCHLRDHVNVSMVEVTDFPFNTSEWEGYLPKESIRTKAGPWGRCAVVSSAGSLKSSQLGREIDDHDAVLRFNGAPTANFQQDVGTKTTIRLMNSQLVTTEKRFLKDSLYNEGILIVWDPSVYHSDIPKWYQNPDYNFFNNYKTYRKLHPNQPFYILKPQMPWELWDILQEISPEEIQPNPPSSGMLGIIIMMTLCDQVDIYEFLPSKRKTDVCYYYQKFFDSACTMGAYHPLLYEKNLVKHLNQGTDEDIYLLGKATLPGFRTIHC
ASSAY_ENDPOINT: IC50

[
  {
    "STRUCTURE_STRING": "COc1ccc2c(CC(=O)N[C@@H](CC(=O)O)C(=O)O[C@@H]3CC[C@@]4(C)[C@H](CC[C@@H]5[C@@H]4CC[C@]4(C)[C@@H]([C@H](C)CCC(=O)OCCOCCOCCOCCN=[N+]=[N-])CC[C@@H]54)C3)cc(=O)oc2c1",
    "IC50": "5 µM"
  }
]

Returns the measured IC50 for the input compound. Input: C[C@H](CCC(=O)OCCOCCOCCN=[N+]=[N-])[C@H]1CC[C@H]2[C@@H]3CC[C@@H]4C[C@H](OC(=O)[C@H](CC(=O)O)Nc5ccc([N+](=O)[O-])c6nonc56)CC[C@]4(C)[C@H]3CC[C@]12C
3.6 µM

---

- TARGET: CMP-N-acetylneuraminate-beta-1,4-galactoside alpha-2,3-sialyltransferase (Rattus norvegicus)
ASSAY_ENDPOINT: pIC50
Give bare numbers, as −log10 of the molar value.

Answered examples (2):
[
  {
    "STRUCTURE_STRING": "C[C@H](CCC(=O)OCCOCCOCCOCCN=[N+]=[N-])[C@H]1CC[C@H]2[C@@H]3CC[C@@H]4C[C@H](OC(=O)[C@H](CC(=O)O)Nc5ccc([N+](=O)[O-])c6nonc56)CC[C@]4(C)[C@H]3CC[C@]12C",
    "pIC50": 6.00
  },
  {
    "STRUCTURE_STRING": "C[C@H](CCC(=O)O)[C@H]1CC[C@H]2[C@@H]3CC[C@@H]4C[C@H](OC(=O)[C@H](CCC(=O)O)Nc5ccc([N+](=O)[O-])c6nonc56)CC[C@]4(C)[C@H]3CC[C@]12C",
    "pIC50": 6.05
  }
]

Turning to the following compound.
Returns the measured pIC50 for the input compound. Input: C[C@H](CCC(=O)O)[C@H]1CC[C@H]2[C@@H]3CC[C@@H]4C[C@H](OC(=O)[C@@H](N)CC(=O)O)CC[C@]4(C)[C@H]3CC[C@]12C
4.92

---

I'd appreciate it if you could supply Ratio IC50 values for the items below.
- TEST_NAME: Selectivity ratio of IC50 for of inhibition of rat alpha-2,3-O-ST3GALI to IC50 for inhibition of human alpha-2,6-ST6GAL1

Answered examples (3):
[
  {
    "STRUCTURE_STRING": "COc1ccc2c(CC(=O)N[C@@H](CC(=O)O)C(=O)O[C@@H]3CC[C@@]4(C)[C@H](CC[C@@H]5[C@@H]4CC[C@]4(C)[C@@H]([C@H](C)CCC(=O)OCCOCCOCCOCCN=[N+]=[N-])CC[C@@H]54)C3)cc(=O)oc2c1",
    "Ratio IC50": "> 101"
  },
  {
    "STRUCTURE_STRING": "COc1ccc2c(CC(=O)N[C@@H](CC(=O)O)C(=O)O[C@@H]3CC[C@@]4(C)[C@H](CC[C@@H]5[C@@H]4CC[C@]4(C)[C@@H]([C@H](C)CCC(=O)OCCOCCOCCOCCOCCN=[N+]=[N-])CC[C@@H]54)C3)cc(=O)oc2c1",
    "Ratio IC50": "> 88"
  },
  {
    "STRUCTURE_STRING": "C[C@H](CCC(=O)OCCN=[N+]=[N-])[C@H]1CC[C@H]2[C@@H]3CC[C@@H]4C[C@H](OC(=O)[C@H](CC(=O)O)NC(=O)c5ccc([N+](=O)[O-])cc5)CC[C@]4(C)[C@H]3CC[C@]12C",
    "Ratio IC50": "> 70"
  }
]

Returns the measured Ratio IC50 for the input compound. Input: C[C@H](CCC(=O)OCCOCCN=[N+]=[N-])[C@H]1CC[C@H]2[C@@H]3CC[C@@H]4C[C@H](OC(=O)[C@H](CC(=O)O)NC(=O)c5ccc([N+](=O)[O-])cc5)CC[C@]4(C)[C@H]3CC[C@]12C
> 74

---

- Species: Rattus norvegicus
- TEST_NAME: Selectivity ratio of inhibition of rat alpha-2,3-O-ST3GALI at 500 uM to IC50 for inhibition of rat alpha-2,3-N-ST3GALIII
ASSAY_ENDPOINT: Selectivity ratio

Answered examples (4):
[
  {
    "STRUCTURE_STRING": "C[C@H](CCC(=O)OCCOCCOCCN=[N+]=[N-])[C@H]1CC[C@H]2[C@@H]3CC[C@@H]4C[C@H](OC(=O)[C@H](CC(=O)O)Nc5ccc([N+](=O)[O-])c6nonc56)CC[C@]4(C)[C@H]3CC[C@]12C",
    "Selectivity ratio": "> 287"
  },
  {
    "STRUCTURE_STRING": "C[C@H](CCC(=O)OCCOCCN=[N+]=[N-])[C@H]1CC[C@H]2[C@@H]3CC[C@@H]4C[C@H](OC(=O)[C@H](CC(=O)O)Nc5ccc([N+](=O)[O-])c6nonc56)CC[C@]4(C)[C@H]3CC[C@]12C",
    "Selectivity ratio": "> 649"
  },
  {
    "STRUCTURE_STRING": "C[C@H](CCC(=O)OCCN=[N+]=[N-])[C@H]1CC[C@H]2[C@@H]3CC[C@@H]4C[C@H](OC(=O)[C@H](CC(=O)O)Nc5ccc([N+](=O)[O-])c6nonc56)CC[C@]4(C)[C@H]3CC[C@]12C",
    "Selectivity ratio": "> 625"
  },
  {
    "STRUCTURE_STRING": "C[C@H](CCC(=O)OCCOCCOCCOCCOCCN=[N+]=[N-])[C@H]1CC[C@H]2[C@@H]3CC[C@@H]4C[C@H](OC(=O)[C@H](CC(=O)O)Nc5ccc([N+](=O)[O-])c6nonc56)CC[C@]4(C)[C@H]3CC[C@]12C",
    "Selectivity ratio": "> 516"
  }
]

Turning to the following compound.
Returns the measured Selectivity ratio for the input compound. Input: C[C@H](CCC(=O)OCCOCCOCCOCCN=[N+]=[N-])[C@H]1CC[C@H]2[C@@H]3CC[C@@H]4C[C@H](OC(=O)[C@H](CC(=O)O)Nc5ccc([N+](=O)[O-])c6nonc56)CC[C@]4(C)[C@H]3CC[C@]12C
> 495
